Study the reported IC50 values for Somatostatin receptor type 3 (Homo sapiens, UniProt P32745) given below; they originate from different publications.

A selection of reference data follows.
CC(=O)N[C@@H](Cc1ccccc1)C(=O)N[C@]1(C)Cc2c([nH]c3ccccc23)CN([C@@H](CCCCN)C(=O)N[C@H](C(N)=O)[C@@H](C)O)C1=O    > 1000 nM
CN[C@H]1CSSC[C@@H](C(=O)O)NC(=O)[C@H](CO)NC(=O)[C@H]([C@@H](C)O)NC(=O)[C@H](Cc2ccccc2)NC(=O)[C@H]([C@@H](C)O)NC(=O)[C@H](Cc2ccc(CNC(C)C)cc2)NC(=O)[C@@H](Cc2ccc3ccccc3c2)NC(=O)[C@H](Cc2ccccc2)NC(=O)[C@H](Cc2ccccc2)NC(=O)[C@H](CCCCN)NC1=O    > 1000 nM
C[C@@H](O)[C@@H]1NC(=O)[C@H](CCCCN)NC(=O)[C@@H](Cc2c[nH]c3ccccc23)NC(=O)[C@H](Cc2ccccc2)NC(=O)[C@H](Cc2ccccc2)NC(=O)[C@@H](N)CSSC[C@@H](C(=O)O)NC(=O)[C@H](Cc2ccc(O)cc2)NC1=O (stereo in doubt)    8.2 nM

Now look at this entry.
The compound listed as C[C@@H](O)[C@@H]1NC(=O)[C@@H](N(C)C(=O)CCN)NC(=O)[C@@H](Cc2c[nH]c3ccccc23)NC(=O)[C@H](Cc2ccccc2)NC(=O)[C@H](Cc2ccccc2)NC(=O)[C@@H](N)CSSC[C@@H](C(=O)O)NC(=O)[C@H](Cc2ccccc2)NC1=O has a reported IC50 of > 1000 nM

====

Collected IC50 for UniProt P32745 across several studies; compounds listed below.
readout-name: IC50 (nM)

(P) C[C@@H](O)[C@@H]1NC(=O)[C@H](CCCCN)NC(=O)[C@H]([C@@H](C)c2ccc3ccccc3c2)NC(=O)[C@H](Cc2ccc(O)cc2)NC(=O)[C@H](Cc2ccccc2)NC(=O)[C@@H](N)CSSC[C@@H](C(=O)O)NC(=O)[C@H](Cc2ccccc2)NC1=O
(Q) C[C@@H](O)[C@@H]1NC(=O)[C@H](CCCCN)NC(=O)[C@@H](Cc2c[nH]c3ccccc23)NC(=O)[C@H](Cc2ccc(O)cc2)NC(=O)[C@H](Cc2ccccc2)NC(=O)[C@@H](N)CSSC[C@@H](C(=O)O)NC(=O)[C@H](Cc2ccccc2)NC1=O
(R) CC(C)[C@@H]1NC(=O)[C@H](CCCCN)NC(=O)[C@@H](Cc2c[nH]c3ccccc23)NC(=O)[C@H](Cc2ccc(O)cc2)NC(=O)[C@H](NC(=O)[C@@H](N)Cc2ccc3ccccc3c2)CSSC[C@@H](C(=O)N[C@H](Cc2ccc3ccccc3c2)C(N)=O)NC1=O
(S) CC(C)[C@@H]1NC(=O)[C@H](CCCCN)NC(=O)[C@@H](Cc2c[nH]c3ccccc23)N(C)C(=O)[C@H](Cc2ccc(O)cc2)NC(=O)[C@H](C)N(C)C(=O)[C@H](Cc2ccccc2)N(C)C1=O
(T) Fc1ccccc1-c1c[nH]c([C@H]2Cc3c([nH]c4ccccc34)[C@@H](C3CCOCC3)N2)n1
Ask: Hey, can you sort those compounds up there by IC50, smallest first? To answer, write out the labels according to the requested order.
Result: T, Q, S, P, R

====

Let's look at some pIC50 data for Somatostatin receptor type 3 (Homo sapiens) that I collected from the literature.
pIC50: −log10 of the molar value.
readout-name: pIC50

C[C@@H](O)[C@H](NC(=O)[C@@H]1CSSC[C@H](NC(=O)[C@H](Cc2ccccc2)NC(N)=O)C(=O)N[C@@H](Cc2ccc(NC(N)=O)cc2)C(=O)N[C@H](Cc2c[nH]c3ccccc23)C(=O)N[C@@H](CCCCN)C(=O)N[C@@H]([C@@H](C)O)C(=O)N1)C(N)=O    6.03

(P) C[C@H](c1ccc2ccccc2c1)[C@@H]1NC(=O)[C@H](Cc2ccc(O)cc2)NC(=O)[C@H](Cc2ccccc2)NC(=O)[C@@H](N)CSSC[C@@H](C(=O)O)NC(=O)[C@H](Cc2ccccc2)NC(=O)[C@H]([C@@H](C)O)NC(=O)[C@H](CCCCN)NC1=O
(Q) Cc1[nH]c([C@H]2Cc3c([nH]c4ccccc34)[C@@H](C3CCOCC3)N2)nc1-c1ccccc1
Ask: Hi, I'm comparing P with Q and wondering which one has the bigger number for pIC50. Any idea? Reply briefly: the label of your chosen item.
Result: P

(I) c1ccc2c3c([nH]c2c1)C(C1CCOCC1)NC(c1nc(C2CCCCC2)c[nH]1)C3 (stereo not given)
(II) c1ccc2c3c([nH]c2c1)[C@@H](C1CCOCC1)N[C@@H](c1nc(-c2cnccn2)c[nH]1)C3
(III) C[C@@H](O)[C@@H]1NC(=O)[C@H](CCCCN)NC(=O)[C@H](Cc2c[nH]c3ccccc23)NC(=O)[C@H](Cc2ccccc2)NC(=O)[C@H](Cc2ccccc2)NC(=O)[C@@H](N)CSSC[C@@H](C(=O)O)NC(=O)[C@H](Cc2ccc(O)cc2)NC1=O (stereo in doubt)
Ask: Please give the order of these molecules when sorted by pIC50, largest value leading. Your answer should be the labels, listed in the requested order.
Result: III, I, II
(III: 8.00, I: 6.64, II: 6.11)

====

pIC50: −log10 of the molar value.
We begin with pIC50 values for Somatostatin receptor type 3 (Homo sapiens, UniProt P32745), as collected from the published literature.
readout-name: pIC50

Solved entries:
CNCc1ccc(C[C@@H]2NC(=O)[C@@H](Cc3ccc4ccccc4c3)NC(=O)[C@H](Cc3ccccc3)NC(=O)[C@H](Cc3ccccc3)NC(=O)[C@H](CCCCN)NC(=O)[C@@H](N)CSSC[C@@H](C(=O)O)NC(=O)[C@H](CO)NC(=O)[C@H]([C@@H](C)O)NC(=O)[C@H](Cc3ccccc3)NC(=O)[C@H]([C@@H](C)O)NC2=O)cc1    6.55
COc1ccc(-c2c[nH]c([C@H]3Cc4c([nH]c5ccccc45)[C@@H](C4CCOCC4)N3)n2)cc1    6.90

(a) CC(C)(C)c1c[nH]c(C2Cc3c([nH]c4ccccc34)C(C3CCOCC3)N2)n1 (stereo not drawn)
(b) CC(C)NCc1ccc(C[C@@H]2NC(=O)[C@@H](N(C)C(=O)c3ccc4ccccc4c3)NC(=O)[C@H](Cc3ccccc3)NC(=O)[C@@H](N)CSSC[C@@H](C(=O)N[C@H](C(N)=O)[C@@H](C)O)NC(=O)[C@H](Cc3ccccc3)NC2=O)cc1
Ask: Between a and b , whose recorded pIC50 is greater? Could you answer with the label of the item you picked?
Result: a

====

pIC50: −log10 of the molar value.
Hi, quick share: literature pIC50 data for Somatostatin receptor type 3 (Homo sapiens, UniProt P32745), several sources combined.
readout-name: pIC50

C[C@@H](O)[C@@H]1NC(=O)[C@H](CCCCN)NC(=O)[C@@H](Cc2c[nH]c3ccccc23)NC(=O)[C@H](Cc2ccc(NC(N)=O)cc2)NC(=O)[C@H](NC(=O)[C@H](Cc2ccc(Cl)cc2)NC(=O)CCOCCOCCOCCNC(=O)CN2CCN(CC(=O)O)CCN(CC(=O)O)CCN(CC(=O)O)CC2)CSSC[C@@H](C(=O)N[C@@H](Cc2ccc3ccccc3c2)C(N)=O)NC1=O    7.06

(I) c1ccc2c(-c3c[nH]c([C@H]4Cc5c([nH]c6ccccc56)[C@@H](C5CCOCC5)N4)n3)c[nH]c2c1
(II) Cn1cc(-c2ccc(F)cc2)nc1[C@H]1Cc2c([nH]c3ccccc23)[C@H](C2CCOCC2)N1
(III) C[C@@H](O)[C@@H]1NC(=O)[C@H](CCCCN)NC(=O)[C@@H](Cc2c[nH]c3ccccc23)NC(=O)[C@H](Cc2ccccc2)NC(=O)[C@H](Cc2ccccc2)NC(=O)[C@H](CCCCN)NC(=O)[C@@H](N)CSSC[C@@H](C(=O)O)NC(=O)[C@H](Cc2ccccc2)NC1=O
Ask: With regard to pIC50, arrange the entries in ascending order, please. Use the labels to give the requested order.
Result: II, I, III
(II: 5.88, I: 6.88, III: 7.41)

====

The following compounds were reported with IC50 values on Somatostatin receptor type 3 (Homo sapiens) in different studies.
Sequence (P32745 whole entry): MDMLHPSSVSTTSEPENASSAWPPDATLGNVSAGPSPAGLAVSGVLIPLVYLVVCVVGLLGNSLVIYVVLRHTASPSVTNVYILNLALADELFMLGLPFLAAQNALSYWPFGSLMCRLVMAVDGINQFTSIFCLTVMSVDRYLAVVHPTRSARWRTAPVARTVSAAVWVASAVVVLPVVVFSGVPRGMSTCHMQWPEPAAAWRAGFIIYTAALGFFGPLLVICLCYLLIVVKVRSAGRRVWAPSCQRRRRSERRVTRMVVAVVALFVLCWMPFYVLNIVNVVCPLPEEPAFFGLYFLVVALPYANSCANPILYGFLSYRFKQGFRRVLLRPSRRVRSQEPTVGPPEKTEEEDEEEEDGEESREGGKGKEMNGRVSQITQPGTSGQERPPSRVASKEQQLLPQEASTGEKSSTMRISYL
readout-name: IC50 (nM)

CC(C)NCc1ccc(C[C@@H]2NC(=O)[C@@H](Cc3c[nH]c4ccccc34)NC(=O)[C@H](Cc3ccccc3)NC(=O)[C@H](Cc3ccccc3)NC(=O)[C@@H](NC(=O)[C@@H](N)Cc3ccc(O)cc3)CSSC[C@@H](C(=O)O)NC(=O)[C@H]([C@@H](C)O)NC(=O)[C@H](Cc3ccccc3)NC(=O)[C@H]([C@@H](C)O)NC2=O)cc1    445

(I) CC(C)[C@@H]1NC(=O)[C@H](CCCCN)NC(=O)[C@@H](Cc2c[nH]c3ccccc23)NC(=O)[C@H](Cc2ccc(O)cc2)NC(=O)[C@H](NC(=O)[C@H](N)Cc2ccccc2)C(C)(C)SSC[C@@H](C(=O)N[C@H](C(N)=O)[C@@H](C)O)NC1=O
(II) Clc1ccc(-c2c[nH]c([C@H]3Cc4c([nH]c5ccccc45)[C@@H](C4CCOCC4)N3)n2)nc1
Ask: Lower IC50: I or II ? Refer to your chosen item by its label in the answer.
Result: II
